target desc: GABA-A receptor; anion channel
method: Non-competitive antagonist activity against Gamma-aminobutyric acid A (GABA-A) receptor
Type: functional, Rattus norvegicus
readout name: IC50

*Q* Form field: reported IC50 of Cc1nccn1CC1CCc2c(c3ccccc3n2C)C1=O (stereo unspecified)
*A* 10 µM

----------
target desc: GABA-A receptor; anion channel
method: Potent antagonist activity against Gamma-aminobutyric acid A (GABA-A) receptor from rat cortex RNA expressed in Xenopus oocytes
measurement parameters: oocyte
readout name: pKd
Kindly note that pKd refers to -log10 of the concentration in mol/L and answer with the value alone.

*Q* Report pKd for O=S(=O)(O)C1CCNCC1 tested on GABA-A receptor; anion channel.
*A* 3.98

----------
target desc: Gamma-aminobutyric acid receptor subunit rho-1 (Homo sapiens, UniProt P24046)
Sequence (P24046 whole entry): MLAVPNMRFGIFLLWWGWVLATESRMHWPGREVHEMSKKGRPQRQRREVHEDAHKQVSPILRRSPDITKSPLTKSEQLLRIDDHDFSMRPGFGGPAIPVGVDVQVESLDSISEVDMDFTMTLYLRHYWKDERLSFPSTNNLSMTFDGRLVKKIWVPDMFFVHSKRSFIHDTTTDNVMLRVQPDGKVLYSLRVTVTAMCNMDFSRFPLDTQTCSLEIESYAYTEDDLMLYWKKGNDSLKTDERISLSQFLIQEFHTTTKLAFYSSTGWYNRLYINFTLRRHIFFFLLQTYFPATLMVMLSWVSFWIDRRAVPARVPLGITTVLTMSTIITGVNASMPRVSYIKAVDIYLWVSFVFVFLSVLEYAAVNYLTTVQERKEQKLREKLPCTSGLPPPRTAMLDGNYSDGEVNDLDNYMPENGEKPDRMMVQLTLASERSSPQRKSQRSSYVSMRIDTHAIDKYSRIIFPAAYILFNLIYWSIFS
method: Partial agonist activity against rho-1 subunit GABA-C receptor expressed in Xenopus oocytes with low efficacy
Format: functional, cell-based, Oocyte
readout name: pEC50
Kindly note that pEC50 refers to -log10 of the concentration in mol/L and answer with the value alone.

*Q* Form field: reported pEC50 of NC[C@@H]1C[C@@H]1C(=O)O (relative stereo)
*A* 4.70

----------
target desc: Gamma-aminobutyric acid receptor subunit rho-1 (Homo sapiens)
method: Partial agonist activity against rho-1 subunit GABA-C receptor expressed in Xenopus oocytes, low intrinsic activity (Im 3%)
Format: functional, cell-based, Oocyte
readout name: EC50 (µM)
Your answer should be a plain number; it is taken to be in µM.

*Q* Form field: reported EC50 of O=C(O)Cc1c[nH]cn1 [IMIDAZOLE ACETIC ACID]
*A* 16

----------
target desc: Gamma-aminobutyric acid receptor subunit rho-2 (Homo sapiens, UniProt P28476)
Sequence (P28476 whole entry): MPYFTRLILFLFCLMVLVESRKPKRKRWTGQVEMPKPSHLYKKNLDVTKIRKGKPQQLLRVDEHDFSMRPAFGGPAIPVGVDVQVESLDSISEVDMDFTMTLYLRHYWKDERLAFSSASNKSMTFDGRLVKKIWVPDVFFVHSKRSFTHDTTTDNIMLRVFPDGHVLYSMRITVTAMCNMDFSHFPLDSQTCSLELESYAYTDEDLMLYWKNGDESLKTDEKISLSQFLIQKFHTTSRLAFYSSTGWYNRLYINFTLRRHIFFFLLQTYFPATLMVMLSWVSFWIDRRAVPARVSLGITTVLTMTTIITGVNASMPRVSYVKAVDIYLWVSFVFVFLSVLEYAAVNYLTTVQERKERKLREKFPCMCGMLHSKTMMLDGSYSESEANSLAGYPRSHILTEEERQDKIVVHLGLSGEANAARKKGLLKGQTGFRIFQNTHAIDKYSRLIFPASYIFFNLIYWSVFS
method: Activation of human rho2 GABA-C receptor at 34% of maximal GABA-induced response
readout name: pEC50
Kindly note that pEC50 refers to -log10 of the concentration in mol/L and answer with the value alone.

*Q* Form field: reported pEC50 of C/C(=C\CN)C(=O)O
*A* 4.00

----------
target desc: GABA-A receptor; anion channel
method: Competitive antagonist activity against Gamma-aminobutyric acid A (GABA-A) receptor
Assay type: functional
readout name: pIC50
Kindly note that pIC50 refers to -log10 of the concentration in mol/L and answer with the value alone.

*Q* Form field: reported pIC50 of c1ccc2c(NCCCCCCCNc3c4c(nc5ccccc35)CCCC4)c3c(nc2c1)CCCC3
*A* 5.22

----------
target desc: GABA-A receptor; anion channel
method: Affinity against recombinant Gamma-aminobutyric acid A (GABA-A) receptor
readout name: Ki (nM)
Your answer should be a plain number; it is taken to be in nM.

*Q* Form field: reported Ki of O=c1cc(-c2cccc([N+](=O)[O-])c2)oc2cccc(Br)c12
*A* 30

----------
target desc: Gamma-aminobutyric acid receptor subunit rho-1 (Homo sapiens)
method: Partial agonist activity against human rho-1 subunit GABA-C receptor expressed in Xenopus oocytes
readout name: pKd
Kindly note that pKd refers to -log10 of the concentration in mol/L and answer with the value alone.

*Q* Report pKd for NCc1cc(=O)[nH]o1 tested on Gamma-aminobutyric acid receptor subunit rho-1 (Homo sapiens).
*A* 5.64

----------
target desc: Gamma-aminobutyric acid receptor subunit rho-2 (Homo sapiens, UniProt P28476)
method: Full agonist activity against human rho-2 subunit GABA-C receptor expressed in Xenopus oocytes
Format: functional, cell-based, Oocyte
readout name: EC50 (µM)
Your answer should be a plain number; it is taken to be in µM.

*Q* Form field: reported EC50 of NC[C@@H]1C[C@@H]1C(=O)O (relative stereo)
*A* 34.5

----------
target desc: GABA-A receptor; anion channel
method: Inhibitory activity against Gamma-aminobutyric acid A (GABA-A) receptor from rat cultured cortical neuron RNA expressed in Xenopus oocytes
Format: functional, cell-based
measurement parameters: oocyte
readout name: pEC50
Kindly note that pEC50 refers to -log10 of the concentration in mol/L and answer with the value alone.

*Q* Form field: reported pEC50 of CCCCCCCC/C=C\CCCCCCCC(N)=O [OLEAMIDE]
*A* 4.82

----------
target desc: Gamma-aminobutyric acid receptor subunit rho-2 (Homo sapiens)
method: Partial agonist activity against rho-2 subunit GABA-C receptor expressed in Xenopus oocytes, higher intrinsic activity (Im 38%)
Type: functional, cell-based, Oocyte
readout name: EC50 (µM)
Your answer should be a plain number; it is taken to be in µM.

*Q* Form field: reported EC50 of O=C(O)Cc1c[nH]cn1
*A* 3

----------
target desc: GABA-A receptor; anion channel
method: Affinity against recombinant Gamma-aminobutyric acid A (GABA-A) receptor
Assay type: protein-complex assay
readout name: pIC50
Kindly note that pIC50 refers to -log10 of the concentration in mol/L and answer with the value alone.

*Q* Form field: reported pIC50 of COC(=O)[C@H]1[C@@H](OC(=O)c2ccccc2)C[C@@H]2CC[C@H]1N2C
*A* 3.90

----------
target desc: Gamma-aminobutyric acid receptor subunit rho-2 (Homo sapiens, UniProt P28476)
method: Partial agonist activity against human rho-2 subunit GABA-C receptor expressed in Xenopus oocytes
readout name: Kd (nM)
Your answer should be a plain number; it is taken to be in nM.

*Q* Form field: reported Kd of NCc1cc(=O)[nH]o1
*A* 1400

----------
target desc: Gamma-aminobutyric acid receptor subunit rho-1 (Homo sapiens)
method: Partial agonist activity against rho-1 subunit GABA-C receptor expressed in Xenopus oocytes
Assay type: functional, cell-based, Oocyte
readout name: EC50 (nM)
Your answer should be a plain number; it is taken to be in nM.

*Q* Report EC50 for NC/C=C(\F)C(=O)O tested on Gamma-aminobutyric acid receptor subunit rho-1 (Homo sapiens).
*A* 2430
